- target.entity: recombinant human CK2 (Homo sapiens)
- Sequence (P68400 whole entry): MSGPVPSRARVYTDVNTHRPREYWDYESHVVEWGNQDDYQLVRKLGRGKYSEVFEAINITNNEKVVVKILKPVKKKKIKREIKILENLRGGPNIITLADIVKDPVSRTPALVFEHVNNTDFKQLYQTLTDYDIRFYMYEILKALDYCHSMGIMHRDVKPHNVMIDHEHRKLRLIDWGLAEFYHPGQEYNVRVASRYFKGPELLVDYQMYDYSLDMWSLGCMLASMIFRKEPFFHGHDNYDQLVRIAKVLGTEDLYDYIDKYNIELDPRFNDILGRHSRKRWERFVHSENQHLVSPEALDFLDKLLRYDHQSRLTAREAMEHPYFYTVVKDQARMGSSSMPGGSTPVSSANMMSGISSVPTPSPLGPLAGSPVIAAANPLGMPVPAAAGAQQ
- Sequence (P67870 whole entry partner): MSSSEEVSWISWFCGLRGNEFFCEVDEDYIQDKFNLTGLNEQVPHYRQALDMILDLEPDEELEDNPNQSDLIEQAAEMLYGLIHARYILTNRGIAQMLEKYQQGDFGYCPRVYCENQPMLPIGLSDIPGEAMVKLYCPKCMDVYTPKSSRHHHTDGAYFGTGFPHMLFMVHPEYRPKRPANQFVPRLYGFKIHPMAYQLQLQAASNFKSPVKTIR
- assay.protocol: CK2 Kinase Assay (33P-ATP, substrate peptide RRRDDDSDDD)
- experimental.setup: final ATP concentration 15 μM, 10 min at 30° C., eight concentrations; read-out: protein kinase CK2 IC50
quantity.name: IC50

Data request, read-out IC50, for O=C(O)c1ccc2c(c1)nc(Nc1cccc(Cl)c1)c1[nH]cc(C(=O)O)c12 [Compound 1]
0.035 µM
